- run_description: Pharmacokinetics of Compound A, phase I dose-escalation part (plasma)
- Assay type: in vivo, human
- details: human, plasma, oral, 80 mg, C1D8, 80 mg BID (n = 3), geometric mean; read-out: Effective t1/2 (converted)
observable: half-life (h)
Write the answer as a number in h, unit excluded.

Form field half-life, entry C=CCN1CC(=O)N2[C@@H](Cc3ccc(O)cc3F)C(=O)N(Cc3cccc(N4CC(N5CCN(CC)CC5)C4)n3)C[C@@H]2N1C(=O)NCc1ccccc1 [Compound A] : 17.4

====

- run_description: Pharmacokinetics of Compound A, phase I dose-escalation part (plasma)
- Format: in vivo, human
- details: human, plasma, oral, 15 mg, C1D8, 15 mg BID (n = 4), geometric mean; read-out: C max, ss
observable: Cmax (ng/mL)
# unit: ng/mL | format: bare number

Lab note: C=CCN1CC(=O)N2[C@@H](Cc3ccc(O)cc3F)C(=O)N(Cc3cccc(N4CC(N5CCN(CC)CC5)C4)n3)C[C@@H]2N1C(=O)NCc1ccccc1 [Compound A] gave Cmax of 159
